Target: TIRR (6-211)-His (UniProt Q9BRJ7 6-211)
Sequence (Q9BRJ7 6-211): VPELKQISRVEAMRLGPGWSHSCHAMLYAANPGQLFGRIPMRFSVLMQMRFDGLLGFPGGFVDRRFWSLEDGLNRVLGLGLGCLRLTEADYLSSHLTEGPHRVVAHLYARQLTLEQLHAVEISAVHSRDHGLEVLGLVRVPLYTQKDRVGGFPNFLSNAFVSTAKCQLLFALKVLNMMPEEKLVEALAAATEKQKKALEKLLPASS
Assay: SPR; SPR: 20 mM HEPES pH 6, 300 mM NaCl, 0.05% P20, 25 C; EMSA: 50 mM HEPES, 50 mM NaCl, 5% glycerol, 20 mM MgCl2, 0.01% Tween 20, 37 C 15 min, 10 nM probe
Settings: protein: recombinant; tags: His; label: 32P 5' in EMSA; hairpin
ATTRIBUTE MEASURED: Kd

Recorded Kd of CGCUCCCAAAAAAAAAAACCGAGCG (structured_RNA) [RNA beacon] , please.
~100 µM
